- SYSTEM_NAME: hKCNQ2/3 (Homo sapiens, UniProt O43525+O43526)
- Construct: expressed in transfected cells; host or cells: CHO-K1
- PROTOCOL_TEXT: Fluorescence assay using a voltage sensitive dye (fluorimetry)
- Assay type: cell-based
- CONDITIONS_USED: CHO-K1, 10 μM; relative to retigabine = 100%; CHO-K1 cells expressing KCNQ2/3; Table 3; read-out: Fluorimetry % Efficacy @ 10 μM (reti-gabine = 100%)
ATTRIBUTE_MEASURED: Emax at 10 µM (%)

Look over these answered cases.
COMPOUND	RECORDED_MEASUREMENT
Cc1cccc(C2c3ccsc3CCN2C(=O)CCC(=O)Nc2cccc3nsnc23)c1 (centres unmarked)	15
O=C(CCC(=O)N1CCc2sccc2C1C1CCCCC1)NCc1cccc(C(F)(F)F)c1 (centres unmarked)	148
O=C(CCC(=O)N1CCc2sccc2C1c1ccccc1)NCc1cccc(F)c1 (centres unmarked)	11
CC(C)C1c2ccsc2CCN1C(=O)CCC(=O)NCc1cccc(C(F)(F)F)c1 (centres unmarked)	139
O=C(CCC(=O)N1CCc2sccc2C1c1ccc(F)cc1)NCc1cccc(C(F)(F)F)c1 (centres unmarked)	132

(a) Cc1cc2c(s1)CCN(C(=O)CCC(=O)NCc1cccc(C(F)(F)F)c1)C2c1ccccc1 (centres unmarked)
(b) O=C(CCC(=O)N1CCc2sccc2C1c1ccccc1)NCCc1ccccc1 (centres unmarked)
(c) COc1ccccc1CNC(=O)CCC(=O)N1CCc2sccc2C1c1ccccc1 (centres unmarked)
(d) Cc1ccc(C2c3ccsc3CCN2C(=O)CCC(=O)NCc2ccccc2)cc1 (centres unmarked)
**Query** Which order do these items take when sorted by rising Emax at 10 µM? List them. I'd appreciate it if you listed the labels in the requested order.
**Result** c, d, b, a
(c: -54%, d: -15%, b: 12%, a: 121%)

Values compiled from patent US20100105722A1.
